Recorded values, source patent US20200239570A1.

study system: T1, human PD-1 expressed on cells (CHO human PD-1 cells) (human, UniProt Q15116 21-288)
T1 construct: CHO cells in the FMAT assays; Jurkat reporter cells in the reporter assay; primary CD4+ T cells in the mixed lymphocyte reaction; also called CHO TREX human PD1 cell line; CHO PD-1
T1 sequence (Q15116 21-288): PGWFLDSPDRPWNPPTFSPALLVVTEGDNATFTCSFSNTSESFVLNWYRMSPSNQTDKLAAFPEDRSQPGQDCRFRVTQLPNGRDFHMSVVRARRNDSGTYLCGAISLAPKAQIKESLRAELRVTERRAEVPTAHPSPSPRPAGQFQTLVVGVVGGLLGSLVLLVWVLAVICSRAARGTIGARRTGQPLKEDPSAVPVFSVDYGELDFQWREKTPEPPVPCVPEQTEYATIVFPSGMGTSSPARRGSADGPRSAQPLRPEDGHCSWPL
protocol summary: FMAT epitope competition on CHO human PD-1 cells; competitor 2 nM 2.1-Strep tagged protein
recorded metric: IC50 (nM)

Solved entries:
{"binder": "VH single domain antibody 2.1 (VHH, human VH single domain antibody; also called Humabody VH 2.1; clone 2.1) VHH: EVQLVESGGGVVRPGGSLRLSCAASGFTFDDYAMSWVRQAPGKGLEWVSGITWNGGSTGYADSVKDRFTISRDNAKNSLYLQMNSLRAEDTALYYCVRDKYSYAWSYDGFDIWGQGTMVTVSS", "IC50 [nM]": 9.4}
{"binder": "Humabody VH 1.39 (VHH, human VH single domain antibody) VHH: EVQLVESGGGLVQPGRSLRLSCAASGFTFDDYALHWVRQAPGKDLEWVSGISWNGGSYGYADSVKGRFTISRDNAKNSLYLQMNSLRAEDTALYYCVREKGPGLTGSTADYYGLDAWGQGTMVTVSS", "IC50 [nM]": 9.7}
{"binder": "Humabody VH 2.27 (VHH, human VH single domain antibody) VHH: EVQLVESGGGVVRPGGSLRLSCAASGFTFDDYAMSWVRQAPGKGLEWVSGITWNAGSTGYADSVKDRFTISRDNAKNSLYLQMNSLRAEDTALYYCVRDKYSYAWSYDDFDIWGQGTMVTVSS", "IC50 [nM]": 13}
{"binder": "VH single domain antibody 1.1 (VHH, human VH single domain antibody (Humabody), purified through its C-terminal His tag; also called Humabody 1.1; clone 1.1) VHH: EVQLLESGGGSVQPGRSLRLSCAASGFTFDDHAMHWVRQAPGKGLEWVSGISWNSGSMGYADSVKDRFTISRDNAKSSLYLQMNSLRAEDTALYYCVREKGPGLTGSTADYYGLDVWGQGTMVTVSS", "IC50 [nM]": 3.6}

A = Humabody VH 2.53 (VHH, human VH single domain antibody) VHH: EVQLVESGGGVVRPGGSLRLSCAASGFTFDDYAMSWVRQAPGKGLEWVSGITWNGGSTGYADSVKDRFTISRDNAKNSLYLQMNSLRAEDTALYYCVRDKYSYAWSYDDFDIWGQGTMVTVSS
B = Humabody VH 2.52 (VHH, human VH single domain antibody) VHH: EVQLVESGGGVVRPGGSLRLSCAASGFTFDDYAMSWVRQAPGKGLEWVSGITWNGGSTGYADSVKDRFTISRDNAKNSLYLQMNSLRAEDTALYYCVRDKYSYAWSYDVFDIWGQGTMVTVSS
Task: # argmax over IC50 for candidates A and B Mark your selection by writing its label.
Output: B
